Target: T1, recombinant human FGFR2c Fc fusion (human, UniProt P21802 148-377)
T1 construct: also called FGFR2IIIc; not shown: Fc part of the FGFR-Fc fusion
T1 sequence (P21802 148-377): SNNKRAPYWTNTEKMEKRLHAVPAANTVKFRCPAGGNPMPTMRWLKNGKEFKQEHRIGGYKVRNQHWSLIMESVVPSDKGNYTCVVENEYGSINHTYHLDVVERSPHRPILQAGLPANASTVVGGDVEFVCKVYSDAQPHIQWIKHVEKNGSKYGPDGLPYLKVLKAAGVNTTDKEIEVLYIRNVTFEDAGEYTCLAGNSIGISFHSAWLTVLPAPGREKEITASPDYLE
Assay: ELISA, scFv on coated FGFR-Fc
Protocol: To characterize the novel anti-FGFR antibodies, their relative ability to bind to each individual FGFR in vitro was compared. […] For the ELISA assay, the ability of each mAb to cross react with the […] FGF receptors was tested across a concentration curve in order to determine the relative binding across FGFR1-4. […] ECL substrate (Pierce) was added and plates were read on the EnVision plate reader.
Catalogue of EC50 readings, one per entry.
Please state the figure in nM; there is no need to write the unit.

Ab3 (scFv format) (scFv, also called FGF#78) scFv: EVQLVESGGGVVQPGRSLRLSCAASGFTFSQYSMHWVRQSPGKGLEWVTLISFDGADKYYADSVKGRFTISRDNSNDTLFLHMNGLRVEDTAIYYCVRGAGRGYTYGPDGFDIWGQGTMVTVSSASTGGGGSGGGGSGGGGSGGGGSDIQLTQSPSSLSASVGDRVTITCRTSQTISRYLNWYQQQPGKAPKLLIYTATSLQSGVPSRFSGSGSGTDFTLTIGGLQPEDFAIYFCQQTYSAPLTFGGGTKVEIKRTVAAPSHHHHHH; 0.62
Ab7 (scFv format) (scFv, also called FGF#51) scFv: QVQLVESGGGVVQPGRSLRLSCAASGFTFSGYAIHWVRQAPGKGLEWVALISYDGSNKYYADSAKGRFTISRDNSKNTLSLQMNSLRVEDTAIYYCVRGAGRGYTYGPDGFDIWGQGTMVTVSSASTGGGGSGGGGSGGGGSGGGGSDIVMTQTPLSSPVTLGQPASISCRSSESLVYRDGNTYLSWLHQRPGQSPRLLIYKVSNRFSGVPDRFSGSGAGTDFTLKISRVEAEDVGVYFCMQATQFPWTFGQGTKVEIKRTVAAPSHHHHHH; 1.47

Req: I have this binder here, Ab14 (scFv format) (scFv, also called FGF#24) scFv: EVQLVETGGGLIQPGGSLRLSCVASGFTVSSNYMSWVRQAPGKGLEWVSVIFSDGTTYYADSVKGRFTISRDNSKNTLYLQMNSLKTEDTAVYYCVAGPANGAYDIWGQGTMVTVSSASTGGGSGGGGSNIQMTQSPSILSASVGDRVTITCRASQSISNWLAWYQQKPGKAPKLLIFRASTLESGVPSRFSGSGSGAEFNLTISSLQPDDFATYYCQQYNVYSGTFGQGTKVEIKRTVAAPSHHHHHH , and I need its recorded EC50.
Resp: 75.7

Req: // EC50 lookup, key: Ab15 (scFv format) (scFv, also called FGF#26) scFv: EVQLLESGGGVVQPGRSLRLSCAASGFTFSSYAMHWVRQAPGKGLEWVAVISYDGSNKYYADSVKGRFTISRDNSKNTLSLQMNSLRVEDTAIYYCVRGAGRGYTYGPDGFDIWGQGTMVTVSSASTGGGGSGGGGSGGGGSGGGGSDIVMTQTPLSLSVTPGQPASISCTSSRSLLHSDGKTYVYWYVQKSGQPPQLLIYELSNRFSGVPDRFSGSGSRTDFTLKISRVEAEDVGVYYCMQYIEAPLTFGGGTKVEIKRTVAAPSHHHHHH
Resp: 0.247
